- Protocol details: Stability indicating HPLC assay and related substances on storage (Example 3)
- Assay type: physicochemical
- Setup conditions: 3 months, 25° C./60% RH
- Experimental: Assay (% w/w) and related substances determination Each test material was stored between 2-8*C prior to placing on stability. Each material was sub-divided into 900 mg aliquots, transferred to brown opaque HDPE plastic bottles and flushed with Argon prior to sealing. Sufficient samples were provided for each time point as well as spares for each storage condition. The samples were placed in appropriate incubators previously commissioned at storage conditions 25° C./60% RH, 40° C./75% RH and 60° C. […]
Measurement kind: M6G Assay, Anhydrous basis (% w/w)

CN1CCC23c4c5ccc(O)c4OC2C(OC2OC(C(=O)O)C(O)C(O)C2O)C=CC3C1C5.CN1CCC23c4c5ccc(O)c4OC2C(OC2OC(C(=O)O)C(O)C(O)C2O)C=CC3C1C5.O=C(O)C=CC(=O)O (stereo not shown) [Morphine-6-glucuronide fumarate] = 87.15
CN1CCC23c4c5ccc(O)c4OC2C(OC2OC(C(=O)O)C(O)C(O)C2O)C=CC3C1C5.CN1CCC23c4c5ccc(O)c4OC2C(OC2OC(C(=O)O)C(O)C(O)C2O)C=CC3C1C5.O=S(=O)(O)O (stereo not shown) [Morphine-6-glucuronide sulphate] = 77.05
Br.CN1CC[C@]23c4c5ccc(O)c4O[C@H]2[C@@H](O[C@@H]2O[C@H](C(=O)O)[C@@H](O)[C@H](O)[C@H]2O)C=C[C@H]3[C@H]1C5 [Morphine-6-glucuronide hydrobromide] = 86.19
CN1CCC23c4c5ccc(O)c4OC2C(OC2OC(C(=O)O)C(O)C(O)C2O)C=CC3C1C5.CN1CCC23c4c5ccc(O)c4OC2C(OC2OC(C(=O)O)C(O)C(O)C2O)C=CC3C1C5.O=C(O)C=CC(=O)O (stereo not shown) [Morphine-6-glucuronide maleate] = 85.11
CN1CC[C@]23c4c5ccc(O)c4O[C@H]2[C@@H](O[C@@H]2O[C@H](C(=O)O)[C@@H](O)[C@H](O)[C@H]2O)C=C[C@H]3[C@H]1C5.Cl [Morphine-6-glucuronide hydrochloride] = 87.71
CN1CCC23c4c5ccc(O)c4OC2C(OC2OC(C(=O)O)C(O)C(O)C2O)C=CC3C1C5.O=P(O)(O)O (stereo not shown) [Morphine-6-glucuronide phosphate] = 91.16
CN1CC[C@]23c4c5ccc(O)c4O[C@H]2[C@@H](O[C@@H]2O[C@H](C(=O)O)[C@@H](O)[C@H](O)[C@H]2O)C=C[C@H]3[C@H]1C5 [Morphine-6-glucuronide base, morphine-6-β-D-glucuronide] = 100.27
